biological target: JH2 domain of human Tyk2 (Homo sapiens); construct: 10×His-tagged TYK2 JH2 domain (amino acid 575-876); test: JH2 biochemical assay (TR-FRET probe displacement); type: binding; settings: JH2 biochemical assay
pIC50: −log10 of the molar value. Counter-ions that a name gives are not always drawn.
Each entry below carries its recorded pIC50.

| molecule | pIC50 |
| --- | --- |
| CCc1cc(N2CC3(CC3)c3cnc(NC(C)=O)cc32)nc(C)n1 | 7.00 to 8.00 |
| CC(=O)Nc1cc2c(cn1)C1(CCN(C)CC1)CN2c1ccnc(C(C)(F)F)n1 [Example 275, trifluoroacetate] | ≤ 6.00 |
| CC(=O)Nc1cc2c(cn1)C1(CC1)CN2c1cc(C)nc(N2CC(C)(O)C2)n1 | 7.00 to 8.00 |
| CC(=O)Nc1cc2c(cn1)C1(CC1)CN2c1cc(C)nc(-c2ccn(C)n2)n1 [Example 244, trifluoroacetate] | 7.00 to 8.00 |
| CCCCCc1cc(N2CC3(CC3)c3cnc(NC(C)=O)cc32)nc(C(C)(F)F)n1 | ≥ 8.00 |
| CC(=O)Nc1cc2c(cn1)C1(CC1)CN2c1cc(C)nc(C(C)(F)F)n1 | ≥ 8.00 |
| COc1cc(N2CC3(CC3)c3cnc(NC(C)=O)cc32)nc(C(C)(F)F)n1 | ≥ 8.00 |
| CC(=O)Nc1cc2c(cn1)C1(CC1)CN2c1cc(C)nc(-c2cnn(C)c2C(F)F)n1 | 7.00 to 8.00 |

----------
target: JH2 domain of human Tyk2 (Homo sapiens); construct: 10×His-tagged TYK2 JH2 domain (amino acid 575-876); experiment: JH2 biochemical assay (TR-FRET probe displacement); type: binding; conditions: JH2 biochemical assay
Structures can show the parent of a compound that is named as a salt.
Each entry below carries its recorded IC50.
value_type: IC50

| compound | value_reported |
| --- | --- |
| CCCNc1cc(N2CC3(CC3)c3cnc(NC(C)=O)cc32)nc(C(C)(F)F)n1 [Example 156, trifluoroacetate] | ≤ 10 nM |
| CC(=O)Nc1cc2c(cn1)C1(CC1)CN2c1cc(C)cc(-c2cn(C)nc2C(F)(F)F)n1 [Example 261, trifluoroacetate] | ≥ 1000 nM |
| CC(=O)Nc1cc2c(cn1)C1(CC1)CN2c1nc(C(C)(F)F)nc(C)c1F | ≤ 10 nM |
| CC(=O)Nc1cc2c(cn1)C1(CC1)CN2c1cc(C)cc(OCC23CC(C)(CO2)C3)n1 | 100 to 1000 nM |

----------
Biological target: JH2 domain of human Tyk2 (Homo sapiens)
Construct: 10×His-tagged TYK2 JH2 domain (amino acid 575-876)
Test: JH2 biochemical assay (TR-FRET probe displacement)
Format: binding
Settings: TR-FRET probe displacement, JH2 domain of human Tyk2
Procedure: The inhibitory potency of compounds of the disclosure against the kinase activity of recombinantly generated JH2 domain of human Tyk2 was evaluated in a plate-based assay using a TR-FRET assay platform. […] The TR-FRET signal inversely correlates to the amount of probe displaced by compounds and signal was calculated by taking the ratio of fluorescence at 520 nm and 495 nm. […]
Where a name gives a salt, the structure may show the parent alone.
Each entry below carries its recorded IC50.

| compound | IC50 |
| --- | --- |
| CC(=O)Nc1cc2c(cn1)C1(CC1)CN2c1cc(-c2cnn(CC(F)(F)F)c2)nc(C(C)(F)F)n1 | ≤ 10 nM |
| CC(=O)Nc1cc2c(cn1)C1(CC1)CN2c1cc(C)cc(N2CC[C@H](C#N)C2)n1 | 10 to 100 nM |
| CC(=O)Nc1cc2c(cn1)C1(CC1)CN2c1cc(C)nc(C2COC2)n1 | 10 to 100 nM |
| CC(=O)Nc1cc2c(cn1)C1(CC1)CN2c1cc(C)nc(N2CC[C@@H](C#N)C2)n1 | ≤ 10 nM |
| CC(=O)Nc1cc2c(cn1)C1(CC1)CN2c1cc(-c2cnn(C)c2C(F)F)nc(C(C)(F)F)n1 [Example 385, trifluoroacetate] | ≤ 10 nM |
| COCCn1cc(-c2cc(N3CC4(CC4)c4cnc(NC(C)=O)cc43)nc(C(C)(F)F)n2)cn1 | ≤ 10 nM |
| CC(=O)Nc1cc2c(cn1)C1(CC1)CN2c1cc(-c2cnn(C(C)C)c2)nc(C(C)(F)F)n1 [Example 386, trifluoroacetate] | ≤ 10 nM |
| CC(=O)Nc1cc2c(cn1)C1(CC1)CN2c1cc(C)nc(OC2CC(C#N)C2)n1 (stereo not drawn) | 100 to 1000 nM |
| CC(=O)Nc1cc2c(cn1)C1(CC1)CN2c1cc(C)nc(N2CC[C@H](C#N)C2)n1 | 10 to 100 nM |
| CC(=O)Nc1cc2c(cn1)C1(CC1)CN2c1cc(C)nc(N2CCC(C)(C#N)C2)n1 (stereo not drawn) | 10 to 100 nM |
| COCC(F)(F)c1nc(C)cc(N2CC3(CC3)c3cnc(NC(C)=O)cc32)n1 [Example 401, trifluoroacetate] | 10 to 100 nM |
| CC(=O)Nc1cc2c(cn1)C1(CC1)CN2c1cc(-c2cnn(CC3CC3)c2)nc(C(C)(F)F)n1 | ≤ 10 nM |
| CC(=O)Nc1cc2c(cn1)C1(CC1)CN2c1cc(C)cc(N2CCC(C)(O)C2)n1 (stereo not drawn) [Example 405, trifluoroacetate] | 100 to 1000 nM |
| CC(=O)Nc1cc2c(cn1)C1(CC1)CN2c1cc(C)nc(OC2CCOC2)n1 (stereo not drawn) [Example 374, trifluoroacetate] | 10 to 100 nM |
| CCn1cc(-c2cc(N3CC4(CC4)c4cnc(NC(C)=O)cc43)nc(C(C)(F)F)n2)cn1 [Example 384, trifluoroacetate] | ≤ 10 nM |

----------
Target: JH2 domain of human Tyk2 (Homo sapiens, UniProt P29597)
Construct: 10×His-tagged TYK2 JH2 domain (amino acid 575-876)
Sequence (P29597 575-876): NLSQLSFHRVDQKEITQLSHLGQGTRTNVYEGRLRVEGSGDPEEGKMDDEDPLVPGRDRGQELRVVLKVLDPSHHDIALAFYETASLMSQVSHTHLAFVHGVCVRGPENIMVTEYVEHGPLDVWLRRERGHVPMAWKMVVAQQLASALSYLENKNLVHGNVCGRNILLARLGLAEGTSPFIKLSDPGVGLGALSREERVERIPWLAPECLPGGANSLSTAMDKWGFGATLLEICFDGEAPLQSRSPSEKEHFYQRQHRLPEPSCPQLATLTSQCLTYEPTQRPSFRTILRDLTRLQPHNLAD
Assay: JH2 biochemical assay (TR-FRET probe displacement)
Format: binding
Conditions: TR-FRET probe displacement, JH2 domain of human Tyk2
Description: The inhibitory potency of compounds of the disclosure against the kinase activity of recombinantly generated JH2 domain of human Tyk2 was evaluated in a plate-based assay using a TR-FRET assay platform. […] The TR-FRET signal inversely correlates to the amount of probe displaced by compounds and signal was calculated by taking the ratio of fluorescence at 520 nm and 495 nm. […]
Counter-ions that a name gives are not always drawn.
value_type: IC50

| compound | experimental_target | value_reported |
| --- | --- | --- |
| CC(=O)Nc1cc2c(cn1)C1(CC1)CN2c1cc(C(C)(C)F)nc(C(C)(F)F)n1 | JH2 domain of human Tyk2 (Homo sapiens, UniProt P29597) | ≤ 0.01 µM |
| CC(=O)Nc1cc2c(cn1)C1(CC1)CN2c1cc(C)cc(N2CC[C@@H](C#N)C2)n1 | JH2 domain of human Tyk2 (Homo sapiens, UniProt P29597) | ≤ 0.01 µM |
| CC(=O)Nc1cc2c(cn1)C1(CC1)CN2c1cc(-c2cnn(C3COC3)c2)nc(C(C)(F)F)n1 | JH2 domain of human Tyk2 (Homo sapiens, UniProt P29597) | ≤ 0.01 µM |
| CC(=O)Nc1cc2c(cn1)C1(CC1)CN2c1cc(C)nc(OC2CCCC2)n1 [Example 379, trifluoroacetate] | JH2 domain of human Tyk2 (Homo sapiens, UniProt P29597) | 0.01 to 0.1 µM |

----------
biological target: JH2 domain of human Tyk2 (Homo sapiens, UniProt P29597); construct: 10×His-tagged TYK2 JH2 domain (amino acid 575-876); assay: JH2 biochemical assay (TR-FRET probe displacement); assay type: binding; conditions: JH2 biochemical assay
Counter-ions that a name gives are not always drawn.
value_type: IC50

| compound | value_reported |
| --- | --- |
| CC(=O)Nc1cc2c(cn1)C1(CC1)CN2c1cc(C)nc(CO)n1 [Example 126] | 10 to 100 nM |
| CC(=O)Nc1cc2c(cn1)C1(CC1)CN2c1nccc(C(C)(F)F)n1 [Example 14] | 10 to 100 nM |
| CCc1cc(N2CC3(CC3)c3cnc(NC(N)=O)cc32)nc(C(C)(F)F)n1 [Example 309] | ≤ 10 nM |
| CC(=O)Nc1cc2c(cn1)C1(CC1)CN2c1cc(C)nc(CCS(C)(=O)=O)n1 [Example 319] | 10 to 100 nM |
| CC(=O)Nc1cc2c(cn1)C1(CC1)CN2c1cc(C)cc(N2C[C@H]3CNC[C@H]3C2)n1 [Example 209, trifluoroacetate] | 100 to 1000 nM |
| CC(=O)Nc1cc2c(cn1)C1(CC1)CN2c1cc(C)nc(N2CC(C#N)C2)n1 [Example 216] | 10 to 100 nM |
| CC(=O)Nc1cc2c(cn1)C1(CC1)CN2c1cccc(C2(O)CCOC2)n1 (centres unmarked) [Example 19] | ≤ 10 nM |
| Cc1cc(N2CC3(CC3)c3cnc(NC(N)=O)cc32)nc(C(C)(F)F)n1 [Example 308] | ≤ 10 nM |
| CC(=O)Nc1cc2c(cn1)C1(CC1)CN2c1cc(C)ncn1 [Example 27] | 10 to 100 nM |
| CC(=O)Nc1cc2c(cn1)C1(CC1)CN2c1cc(OC2CCN(C)C2)nc(C(C)(F)F)n1 (centres unmarked) [Example 359, trifluoroacetate] | 10 to 100 nM |
| CC(=O)Nc1cc2c(cn1)CCN2c1cccc(C(C)(F)F)n1 [Example 32] | 10 to 100 nM |
| COC1CCCN(c2nc(C)cc(N3CC4(CC4)c4cnc(NC(C)=O)cc43)n2)C1 (centres unmarked) [Example 230] | 100 to 1000 nM |
| COCC(F)(F)c1nccc(N2CC3(CC3)c3cnc(NC(C)=O)cc32)n1 [Example 323] | 100 to 1000 nM |
| CC(=O)Nc1cc2c(cn1)C1(CCCC1)CN2c1nccc(C(C)(F)F)n1 [Example 43] | 100 to 1000 nM |
| CCOCc1nc(C)cc(N2CC3(CC3)c3cnc(NC(C)=O)cc32)n1 [Example 59] | 100 to 1000 nM |
| CO[C@@H](C)[C@H](C)Nc1cc(N2CC3(CC3)c3cnc(NC(C)=O)cc32)nc(C(C)(F)F)n1 [Example 165, trifluoroacetate] | ≤ 10 nM |
| CC(=O)Nc1cc2c(cn1)C1(CC1)CN2c1cc(C)cc(OC2CCCC2)n1 [Example 354, trifluoroacetate] | 100 to 1000 nM |
| CC(=O)Nc1cc2c(cn1)C1(CC1)CN2c1cc(NC2CCC2)nc(C(C)(F)F)n1 [Example 157, trifluoroacetate] | ≤ 10 nM |
| CC(=O)Nc1cc2c(cn1)C1(CC1)CN2c1cc(C)cc(OC2CCC2)n1 [Example 340] | 10 to 100 nM |
| CCOCCc1cc(N2CC3(CC3)c3cnc(NC(C)=O)cc32)nc(C(C)(F)F)n1 [Example 330, trifluoroacetate] | ≤ 10 nM |
| CC(=O)Nc1cc2c(cn1)C1(CC1)CN2c1cc(C)cc(-c2cnn(C)c2)n1 [Example 257, trifluoroacetate] | ≤ 10 nM |
| CC(=O)Nc1cc2c(cn1)C1(CC1)CN2c1cc(C)nc(OC2CC(F)C2)n1 (centres unmarked) [Example 370] | 100 to 1000 nM |
| CC(=O)Nc1cc2c(cn1)C1(CC1)CN2c1cc(C)nc(C(C)C)n1 [Example 66] | ≤ 10 nM |
| CC(=O)Nc1cc2c(cn1)C1(CC1)CN2c1cc(C)nc(OCC(F)(F)F)n1 [Example 361, trifluoroacetate] | 10 to 100 nM |
| COCCOc1cc(N2CC3(CC3)c3cnc(NC(C)=O)cc32)nc(C(C)(F)F)n1 [Example 4] | ≤ 10 nM |
| CC(=O)Nc1cc2c(cn1)C1(CC1)CN2c1cc(CCC(C)(C)O)nc(C(C)(F)F)n1 [Example 327] | ≤ 10 nM |
| CC(=O)Nc1cc2c(cn1)C1(CC1)CN2c1cc(C)nc(C23COC(C2)C3)n1 [Example 320] | ≤ 10 nM |
| CC(=O)Nc1cc2c(cn1)C1(CC1)CN2c1cc(N[C@H]2C[C@@H](F)C2)nc(C(C)(F)F)n1 [Example 168] | 10 to 100 nM |
| CC(=O)Nc1cc2c(cn1)C(C)(C)CN2c1cccc(C(C)(F)F)n1 [Example 76, trifluoroacetate] | 100 to 1000 nM |
| CC(=O)Nc1cc2c(cn1)C1(CC1)CN2c1cc(C)cc(OCCF)n1 [Example 355, trifluoroacetate] | ≤ 10 nM |
| CC(=O)Nc1cc2c(cn1)C1(CC1)CN2c1cc(C)cc(N2CC(OC(F)F)C2)n1 [Example 198] | 100 to 1000 nM |
| CCc1nc(C)cc(N2CC3(CC3)c3cnc(NC(C)=O)cc32)n1 [Example 64] | 10 to 100 nM |
